Ref: patent US20240336691A1

Record form. Attribute: % Inhibition at 10 nM Ig of interferon gamma release in human blood. Fill in for each entry.
# TARGET_OR_SYSTEM: T1, TL1A in human blood (endogenous) (human, UniProt O95150 72-251, limits assumed)
# T1 sequence (looked up): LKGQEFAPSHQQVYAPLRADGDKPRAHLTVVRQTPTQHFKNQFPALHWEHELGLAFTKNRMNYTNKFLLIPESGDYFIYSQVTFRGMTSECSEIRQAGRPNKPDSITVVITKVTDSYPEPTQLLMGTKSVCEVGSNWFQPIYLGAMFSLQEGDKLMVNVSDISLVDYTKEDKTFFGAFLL
# ASSAY_COMMENT: cell-based or functional assay
// note: answer is a bare numeric in %

Lookup result for A219 (antibody, V domains shown) VH: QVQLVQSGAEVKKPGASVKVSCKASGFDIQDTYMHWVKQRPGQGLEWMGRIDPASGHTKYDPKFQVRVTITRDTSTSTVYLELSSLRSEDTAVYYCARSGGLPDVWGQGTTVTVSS VL: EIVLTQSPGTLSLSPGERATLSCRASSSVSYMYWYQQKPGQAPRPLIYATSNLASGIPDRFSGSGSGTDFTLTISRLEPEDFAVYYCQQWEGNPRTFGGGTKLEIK ; measured % Inhibition at 10 nM Ig of interferon gamma release in human blood: 75.2

Lookup result for A213 (antibody, human IgG1, V domains shown) VH: QVQLVQSGAEVKKPGASVKVSCKASGFDIQDTYMHWVRQRPGQGLEWMGRIDPASGHTKYDPKFQVRVTITTDTSTSTVYMELSSLRSEDTAVYYCARSGGLPDVWGQGTTVTVSS VL: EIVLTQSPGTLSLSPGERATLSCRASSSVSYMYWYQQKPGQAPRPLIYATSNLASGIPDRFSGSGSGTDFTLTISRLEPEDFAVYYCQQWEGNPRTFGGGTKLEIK ; measured % Inhibition at 10 nM Ig of interferon gamma release in human blood: 69.8

Lookup result for A217 (antibody, human IgG1, V domains shown) VH: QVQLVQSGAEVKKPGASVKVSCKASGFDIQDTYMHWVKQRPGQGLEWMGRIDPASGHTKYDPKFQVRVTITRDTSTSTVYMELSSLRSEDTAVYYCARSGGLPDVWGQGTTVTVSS VL: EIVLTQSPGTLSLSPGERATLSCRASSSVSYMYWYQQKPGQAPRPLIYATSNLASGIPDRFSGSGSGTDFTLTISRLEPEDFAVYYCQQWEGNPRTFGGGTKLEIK ; measured % Inhibition at 10 nM Ig of interferon gamma release in human blood: 72.2
